meta.source: patent US9693556B2

Tested on: Setaria faberi (SETFA)
procedureDetails: Post-emergence herbicidal glasshouse test on Setaria faberi
Assay type: in vivo
experimentalSetup: post-emergence; 1000 g/h; evaluated after 13 days
parameter: POST Application SETFA herbicidal damage (five point scale)

Examples with their reported POST Application SETFA herbicidal damage (five point scale) follow.
compound: Cn1ncc(-c2ccc(-c3ccccc3)cc2S(C)(=O)=O)c(O)c1=O
recordedValue: 3 (3=40-59% damage)

compound: Cn1ncc(-c2ccc(Cl)cc2C(F)(F)F)c(O)c1=O
recordedValue: 3 (3=40-59% damage)

compound: Cn1ncc(-c2ccccc2Cl)c(O)c1=O
recordedValue: 1 (1=0-19% damage)

compound: Cn1ncc(-n2ccc(C(F)(F)F)c(-c3cccc(C#N)c3)c2=O)c(O)c1=O
recordedValue: 5 (5=80-100% damage)

compound: COc1cccn(-c2cnn(C)c(=O)c2O)c1=O
recordedValue: 4 (4=60-79% damage)

Turning now to a further compound:
# input Quick one: POST Application SETFA herbicidal damage (five point scale) of CCS(=O)(=O)c1ccccc1-c1cnn(COC)c(=O)c1O ?
# output 5 (5=80-100% damage)

---

// POST Application ALOMY herbicidal damage (five point scale) lookup, one value per entry
System: Alopecurus myosuroides (ALOMY)
procedureDetails: Post-emergence herbicidal glasshouse test on Alopecurus myosuroides
Format: in vivo
experimentalSetup: post-emergence; 1000 g/h; evaluated after 13 days

Use these answered entries as a reference point.
compound: C#Cc1ccc(-c2cnn(C)c(=O)c2O)c(S(C)(=O)=O)c1
testSystem: Alopecurus myosuroides (ALOMY)
recordedValue: 5 (5=80-100% damage)
--
compound: CC[S+]([O-])c1ccccc1-c1cnn(COC)c(=O)c1O (stereo not shown)
testSystem: Alopecurus myosuroides (ALOMY)
recordedValue: 3 (3=40-59% damage)
--
compound: CCn1ncc(-c2c(Cl)ccc(Cl)c2Cl)c(O)c1=O
testSystem: Alopecurus myosuroides (ALOMY)
recordedValue: 1 (1=0-19% damage)

# input Param item = Cc1cc(C#N)ccc1-c1cnn(C)c(=O)c1O ; retrieve measured POST Application ALOMY herbicidal damage (five point scale).
# output 1 (1=0-19% damage)

# input Look at this compound and give its reported POST Application ALOMY herbicidal damage (five point scale). Cc1ccc(Cl)c(-c2cnn(C)c(=O)c2O)c1
# output 1 (1=0-19% damage)

# input Would you mind telling me what POST Application ALOMY herbicidal damage (five point scale) value was observed for Cn1cccc(-c2cnn(C)c(=O)c2O)c1=O ?
# output 1 (1=0-19% damage)

# input Please report the recorded POST Application ALOMY herbicidal damage (five point scale) for CCS(=O)(=O)c1nc(C(F)(F)F)ccc1-c1cnn(C)c(=O)c1O .
# output 4 (4=60-79% damage)

---

Tested on: Ipomoea hederacea (IPOHE)
procedureDetails: Pre-emergence herbicidal glasshouse test on Ipomoea hederacea
Assay type: in vivo
experimentalSetup: pre-emergence; 1000 g/h; evaluated after 13 days
Procedure: Seeds of a variety of test species are sown in standard soil in pots (Alopecurus myosuroides (ALOMY), Setaria faberi (SETFA), Echinochloa crus-galli (ECHCG), Solanum nigrum (SOLNI), Amaranthus retoflexus (AMARE), Ipomoea hederacea (IPOHE)). […] After 13 days for pre and post-emergence, the test is evaluated for the percentage herbicidal damage caused to the plant. […]
// PRE Application IPOHE herbicidal damage (five point scale) lookup, one value per entry

Here are 10 compounds together with their reported answers.
smilesText: Cn1ncc(-c2ccccc2S(C)(=O)=O)c(O)c1=O
recordedValue: 1 (1=0-19% damage)

smilesText: Cn1ncc(-n2ccc(C(F)(F)F)c(-c3ccccc3C(F)(F)F)c2=O)c(O)c1=O
recordedValue: 1 (1=0-19% damage)

smilesText: Cc1cccn(-c2cnn(C)c(=O)c2O)c1=O
recordedValue: 1 (1=0-19% damage)

smilesText: CCS(=O)(=O)c1nn(C)c(=O)c(O)c1-c1ccc(S(C)(=O)=O)c(C2=NOCC2)c1C
recordedValue: 1 (1=0-19% damage)

smilesText: Cn1ncc(-c2cc(C(F)(F)F)ccc2F)c(O)c1=O
recordedValue: 1 (1=0-19% damage)

smilesText: Cn1ncc(-c2ccc(S(C)(=O)=O)cc2S(C)(=O)=O)c(O)c1=O
recordedValue: 5 (5=80-100% damage)

smilesText: C#Cn1ncc(-c2ccc(Cl)cc2S(C)(=O)=O)c(O)c1=O
recordedValue: 5 (5=80-100% damage)

smilesText: Cn1ncc(-c2cc(OC(F)(F)F)ccc2Cl)c(O)c1=O
recordedValue: 1 (1=0-19% damage)

smilesText: Cn1ncc(-c2ccc(C(F)(F)F)nc2Oc2ccccc2)c(O)c1=O
recordedValue: 1 (1=0-19% damage)

smilesText: Cn1nc(N)c(-c2ccc(C(F)(F)F)cc2S(C)(=O)=O)c(O)c1=O
recordedValue: 5 (5=80-100% damage)

# input Please give the measured PRE Application IPOHE herbicidal damage (five point scale) for this compound: Cn1ncc(-n2ccc(C(F)(F)F)c(-c3cccc(Cl)c3Cl)c2=O)c(O)c1=O
# output 1 (1=0-19% damage)

# input I have this compound here, Cc1ccc(Cl)c(-c2c(C(F)(F)F)ccn(-c3cnn(C)c(=O)c3O)c2=O)c1 , and I need its recorded PRE Application IPOHE herbicidal damage (five point scale).
# output 5 (5=80-100% damage)

# input If you can, please state the reported PRE Application IPOHE herbicidal damage (five point scale) value of COC(=O)Oc1c(-c2ccc(C(F)(F)F)cc2S(C)(=O)=O)cnn(C)c1=O .
# output 5 (5=80-100% damage)

# input Look at this compound and give its reported PRE Application IPOHE herbicidal damage (five point scale). Cn1ncc(-c2ccccc2S(=O)(=O)C(F)(F)F)c(O)c1=O
# output 1 (1=0-19% damage)

# input So what's the measured PRE Application IPOHE herbicidal damage (five point scale) for this one? COc1nc(C(F)(F)F)ccc1-c1cnn(C)c(=O)c1O
# output 1 (1=0-19% damage)
